# TEST: Rodent pharmacokinetic study
# Type: in vivo, Male wistar rats
# ASSAY CONDITIONS: plasma; Wistar/Male rat, 10 mg/kg, Intravenous, vehicle water
METRIC: Cmax

Data request: Fill in the blank: the reported Cmax of COc1ccc(S(=O)(=O)n2ccc3ccccc32)cc1NCCN(C)C is ____.
Data returned: 1590 ng/mL

Data request: One more molecule: COc1ccc(S(=O)(=O)n2cc(C)c3ccccc32)cc1NCCN(C)C
Data returned: 1960 ng/mL

Data request: One more molecule: COc1ccc(S(=O)(=O)n2cc(C)c3ccccc32)cc1NCCCN(C)C
Data returned: 1730 ng/mL

====

# TESTED TARGET: Human 5-HT6 receptor (Homo sapiens, UniProt P50406)
# Construct: expressed in transfected cells; host or cells: HEK293 cells
# Sequence (P50406 whole entry): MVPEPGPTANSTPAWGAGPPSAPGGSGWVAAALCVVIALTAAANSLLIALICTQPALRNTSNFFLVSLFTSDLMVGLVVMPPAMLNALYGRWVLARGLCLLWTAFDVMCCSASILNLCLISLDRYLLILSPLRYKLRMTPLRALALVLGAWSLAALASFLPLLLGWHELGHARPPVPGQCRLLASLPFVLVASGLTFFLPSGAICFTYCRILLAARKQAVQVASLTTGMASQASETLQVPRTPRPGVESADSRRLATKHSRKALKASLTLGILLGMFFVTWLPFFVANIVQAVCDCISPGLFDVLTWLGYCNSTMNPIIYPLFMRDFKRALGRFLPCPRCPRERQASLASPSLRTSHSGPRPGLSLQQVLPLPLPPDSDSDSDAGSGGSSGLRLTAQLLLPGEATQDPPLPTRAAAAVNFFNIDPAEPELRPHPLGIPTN
# TEST: Binding assay for human 5-HT6 receptor ([3H]LSD radioligand)
# ASSAY CONDITIONS: 100 nM test compound; [3H]LSD 1.5 nM; human recombinant receptor in HEK293 cells; read-out: % Inhibition of specific binding at 100 nM
Each entry below lists one item and its recorded inhibition at 0.1 µM value.
Give just the numeric value; % need not be written.

COc1ccc2c(c1)c(Cl)cn2S(=O)(=O)c1ccc(OC)c(NCCN(C)C)c1 | 84.9
CCc1ccc(S(=O)(=O)n2ccc3cc(F)ccc32)cc1NCCN(C)C | 70.7
COc1ccc(S(=O)(=O)n2cc(Cl)c3ccccc32)cc1NCCN(C)C | 95.6
CCc1ccc(S(=O)(=O)n2ccc3cc(OC)ccc32)cc1NCCN(C)C | 76
CCc1ccc(S(=O)(=O)n2cc(C)c3cc(OC)ccc32)cc1NCCN(C)C | 56.4
CN(C)CCNc1cccc(S(=O)(=O)n2ccc3ccc(Cl)cc32)c1 | 96
Cc1ccc(S(=O)(=O)n2ccc3ccc(Cl)cc32)cc1NCCN(C)C | 100
COc1ccc2c(c1)c(C)cn2S(=O)(=O)c1ccc(OC)c(NCCN(C)C)c1 | 82.9
COc1ccc(S(=O)(=O)n2ccc3ccccc32)cc1NCCN(C)C | 90.5

# next molecule below
Data request: Fill in the blank: the reported inhibition at 0.1 µM of COc1ccc(S(=O)(=O)n2cc(C)c3ccccc32)cc1NCCN(C)C is ____.
Data returned: 93

====

Each entry below lists one item and its recorded half-life value.
# TEST: Rodent pharmacokinetic study
# Format: in vivo, Male wistar rats
# ASSAY CONDITIONS: plasma; Wistar/Male rat, 10 mg/kg, Intravenous, vehicle water
# Method: Male wistar rats (230-280 grams) obtained from NIN (National Institute of Nutrition, Hyderabad, India) were used as an experimental animal. Three to five animals were housed in each cage. Animals were kept fasted over night and maintained on a 12 hours light/dark cycle. Three rats were dosed NCE (10 mg/Kg) orally and intravenously on day 0 and day 2. At each time point blood was collected by jugular vein. […] The concentrations of the NCE compound in plasma were determined using LC-MS/MS method. […]
Give just the numeric value; h need not be written.

Data request: Fill in the blank: the reported half-life of COc1ccc(S(=O)(=O)n2cc(C)c3ccccc32)cc1NCCN(C)C [Example 5] is ____.
Data returned: 3.37

Data request: One more compound: COc1ccc(S(=O)(=O)n2ccc3ccccc32)cc1NCCN(C)C [Example 4]
Data returned: 2.93

Data request: One more compound: COc1ccc(S(=O)(=O)n2cc(C)c3ccccc32)cc1NCCCN(C)C [Example 31]
Data returned: 2.72

====

# TEST: Rodent pharmacokinetic study
# Format: in vivo, Male wistar rats
# ASSAY CONDITIONS: plasma; Wistar/Male rat, 10 mg/kg, Intravenous, vehicle water
Each entry below lists one item and its recorded AUC(0-t) value.
Give just the numeric value; ng·h/mL need not be written.

Previously resolved entries follow.
COc1ccc(S(=O)(=O)n2cc(C)c3ccccc32)cc1NCCN(C)C | 2860
COc1ccc(S(=O)(=O)n2cc(C)c3ccccc32)cc1NCCCN(C)C | 3480

# next molecule below
Data request: Fill in the blank: the reported AUC(0-t) of COc1ccc(S(=O)(=O)n2ccc3ccccc32)cc1NCCN(C)C is ____.
Data returned: 1870

====

# TESTED TARGET: Human 5-HT6 receptor (Homo sapiens, UniProt P50406)
# TEST: Binding assay for human 5-HT6 receptor ([3H]LSD radioligand)
# ASSAY CONDITIONS: [3H]LSD; human recombinant receptor in HEK293 cells
Each entry below lists one item and its recorded pKi value.
Quick note: pKi values are minus log10 of concentrations in mol/L.

Previously resolved entries follow.
COc1ccc(S(=O)(=O)n2cc(C)c3cc(F)ccc32)cc1NCCCN(C)C [Example 33] | 8.13
COc1ccc(S(=O)(=O)n2cc(C)c3ccccc32)cc1NCCN(C)C [Example 5] | 8.82
COc1ccc(S(=O)(=O)n2ccc3ccccc32)cc1NCCN(C)C [Example 4] | 8.91
COc1ccc2c(c1)c(C)cn2S(=O)(=O)c1ccc(OC)c(NCCCN(C)C)c1 [Example 35] | 7.72
COc1ccc2c(ccn2S(=O)(=O)c2ccc(C)c(NCCCN(C)C)c2)c1 [Example 9] | 7.39
COc1ccc(S(=O)(=O)n2cc(Cl)c3ccccc32)cc1NCCN(C)C [Example 3] | 8.52

Data request: Under Human 5-HT6 receptor (Homo sapiens, UniProt P50406): pKi value of COc1ccc2c(c1)c(C)cn2S(=O)(=O)c1ccc(C)c(NCCN(C)C)c1 [Example 8] ?
Data returned: 7.76

Data request: One more molecule: COc1ccc(S(=O)(=O)n2cc(C)c3ccccc32)cc1NCCCN(C)C [Example 31]
Data returned: 8.53

====

# TEST: Rodent pharmacokinetic study
# Format: in vivo, Male wistar rats
# ASSAY CONDITIONS: plasma; Wistar/Male rat, 10 mg/kg, Oral, vehicle water
METRIC: half-life
Answer format reminder: number followed by unit.

COc1ccc(S(=O)(=O)n2cc(C)c3ccccc32)cc1NCCCN(C)C | 5.06 h
COc1ccc(S(=O)(=O)n2cc(C)c3ccccc32)cc1NCCN(C)C | 2.27 h

Data request: Fill in the blank: the reported half-life of COc1ccc(S(=O)(=O)n2ccc3ccccc32)cc1NCCN(C)C is ____.
Data returned: 1.95 h

====

Each entry below lists one item and its recorded Cmax value.
# TEST: Rodent pharmacokinetic study
# Type: in vivo, Male wistar rats
# ASSAY CONDITIONS: plasma; Wistar/Male rat, 10 mg/kg, Oral, vehicle water
Give just the numeric value; ng/mL need not be written.

COc1ccc(S(=O)(=O)n2cc(C)c3ccccc32)cc1NCCCN(C)C [Example 31] | 140

Data request: Fill in the blank: the reported Cmax of COc1ccc(S(=O)(=O)n2ccc3ccccc32)cc1NCCN(C)C [Example 4] is ____.
Data returned: 41

Data request: One more compound: COc1ccc(S(=O)(=O)n2cc(C)c3ccccc32)cc1NCCN(C)C [Example 5]
Data returned: 36

====

Each entry below lists one item and its recorded Kp value.
# TEST: Rodent brain penetration study (steady state)
# Type: in vivo, Male Wister rats
# ASSAY CONDITIONS: Wistar, brain and plasma; Wister/Male rat, 10 mg/kg, Oral, vehicle water; read-out: Steady State Brain Penetration Cb/Cp
Give only the figure.

Data request: Fill in the blank: the reported Kp of COc1ccc(S(=O)(=O)n2ccc3ccccc32)cc1NCCN(C)C [Example 4] is ____.
Data returned: 20.2

Data request: One more compound: COc1ccc(S(=O)(=O)n2cc(C)c3ccccc32)cc1NCCN(C)C [Example 5]
Data returned: 13.5

Data request: One more compound: COc1ccc(S(=O)(=O)n2cc(C)c3ccccc32)cc1NCCCN(C)C [Example 31]
Data returned: 3.48

====

# TEST: Rodent pharmacokinetic study
# Assay type: in vivo, Male wistar rats
# ASSAY CONDITIONS: plasma; Wistar/Male rat, 10 mg/kg, Oral vs Intravenous
# Experimental: Male wistar rats (230-280 grams) obtained from NIN (National Institute of Nutrition, Hyderabad, India) were used as an experimental animal. Three to five animals were housed in each cage. Animals were kept fasted over night and maintained on a 12 hours light/dark cycle. Three rats were dosed NCE (10 mg/Kg) orally and intravenously on day 0 and day 2. At each time point blood was collected by jugular vein. […] The concentrations of the NCE compound in plasma were determined using LC-MS/MS method. […]
Each entry below lists one item and its recorded bioavailability value.
Give just the numeric value; % need not be written.

Previously resolved entries follow.
COc1ccc(S(=O)(=O)n2cc(C)c3ccccc32)cc1NCCN(C)C [Example 5] | 6
COc1ccc(S(=O)(=O)n2ccc3ccccc32)cc1NCCN(C)C [Example 4] | 5

# next compound below
Data request: Fill in the blank: the reported bioavailability of COc1ccc(S(=O)(=O)n2cc(C)c3ccccc32)cc1NCCCN(C)C [Example 31] is ____.
Data returned: 19

Reference for the values: patent US7964627B2
